Taken from patent US11266632B1.

Known IC50 of a selection of compounds
system: SARS-CoV-2 "NRC-03-nhCoV" virus; assay: Inhibitory concentration 50 (IC50) determination, virus-induced cytopathic effect in Vero-E6 cells, crystal violet; type: cell-based; details: Severe acute respiratory syndrome coronavirus 2, Vero C1008, 72 h
PROPERTY_NAME: IC50 (µM)

INSERT INTO measurements (compound, observed_result) VALUES
  ('CC1(C)CC[C@]2(C(=O)O)CC[C@]3(C)C(=CC[C@@H]4[C@@]5(C)CC[C@H](O)C(C)(C)[C@@H]5CC[C@]43C)[C@@H]2C1', 476),
  ('CC1(C)CC[C@]2(C(=O)O)CC[C@]3(C)C(=CC[C@@H]4[C@@]5(C)C[C@@H](O)[C@H](O)C(C)(C)[C@@H]5CC[C@]43C)[C@@H]2C1', 99.9),
  ('C#CCOC(=O)[C@]12CCC(C)(C)CC1C1=CCC3[C@@]4(C)C[C@@H](O)[C@H](O)C(C)(C)C4CC[C@@]3(C)[C@]1(C)CC2 (stereo partly drawn)', 236);
